assay: Competitive inhibition of Mycobacterium tuberculosis DNA LigA using NDA+ as substrate by double reciprocal plot analysis
measuredAttribute: Ki (µM)

C=CCOc1ccccc1C(=O)NO
4.3

###

assay: Ratio of IC50 for Bacteriophage T4 DNA ligase to IC50 for Mycobacterium tuberculosis DNA LigA
Overview of reported Ratio IC50 across a group of molecules:
measuredAttribute: Ratio IC50

O=C(NO)c1ccc2ccccc2c1OCc1ccc(Cl)c(Cl)c1
10
CCCCCCOc1c(C(=O)NO)ccc2ccccc12
10
O=C(NO)c1ccccc1OCc1ccc(Cl)c(Cl)c1
10
O=C(NO)c1ccccc1OCC(O)Cn1cc(-c2ccccc2)nn1 (configuration not stated)
10
O=C(NO)c1ccccc1OCc1cccc(Cl)c1
10
O=C(NO)c1ccc2ccccc2c1OCc1cccc(Cl)c1
10
C=CCOc1ccccc1C(=O)NO
10
